B1: LINE1-full (parent)
chain: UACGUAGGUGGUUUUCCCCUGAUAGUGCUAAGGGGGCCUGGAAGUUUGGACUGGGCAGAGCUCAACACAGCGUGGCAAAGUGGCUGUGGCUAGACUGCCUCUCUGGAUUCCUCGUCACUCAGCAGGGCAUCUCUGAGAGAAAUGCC

Variants of: B1
Experiment: self-cleavage, relative activity (ratio to wild type); higher = more cleavage; in vitro, sequencing; the parent is a self-cleaving ribozyme
Result Type: self-cleavage
// no unit, no text: just the number

Reference set, count: 3
[[record]]
mut = "U12A G35A"
readout_value = 0.98

[[record]]
mut = "U26A A67G"
readout_value = 0.4

[[record]]
mut = "C76U A129U"
readout_value = 1.57


Output self-cleavage of G7C U12G
1.19

Output self-cleavage of U73C U87C
0.2

Output self-cleavage of U1C G32U
0.21

Output self-cleavage of U15C A77G
1.55

Output self-cleavage of U52A A124G
1.07
